Let's look at some compounds and their measured composite z-score.
Biological target: Focal adhesion kinase 1 (Homo sapiens) (UniProt Q05397)
Sequence (Q05397 whole entry, looked up): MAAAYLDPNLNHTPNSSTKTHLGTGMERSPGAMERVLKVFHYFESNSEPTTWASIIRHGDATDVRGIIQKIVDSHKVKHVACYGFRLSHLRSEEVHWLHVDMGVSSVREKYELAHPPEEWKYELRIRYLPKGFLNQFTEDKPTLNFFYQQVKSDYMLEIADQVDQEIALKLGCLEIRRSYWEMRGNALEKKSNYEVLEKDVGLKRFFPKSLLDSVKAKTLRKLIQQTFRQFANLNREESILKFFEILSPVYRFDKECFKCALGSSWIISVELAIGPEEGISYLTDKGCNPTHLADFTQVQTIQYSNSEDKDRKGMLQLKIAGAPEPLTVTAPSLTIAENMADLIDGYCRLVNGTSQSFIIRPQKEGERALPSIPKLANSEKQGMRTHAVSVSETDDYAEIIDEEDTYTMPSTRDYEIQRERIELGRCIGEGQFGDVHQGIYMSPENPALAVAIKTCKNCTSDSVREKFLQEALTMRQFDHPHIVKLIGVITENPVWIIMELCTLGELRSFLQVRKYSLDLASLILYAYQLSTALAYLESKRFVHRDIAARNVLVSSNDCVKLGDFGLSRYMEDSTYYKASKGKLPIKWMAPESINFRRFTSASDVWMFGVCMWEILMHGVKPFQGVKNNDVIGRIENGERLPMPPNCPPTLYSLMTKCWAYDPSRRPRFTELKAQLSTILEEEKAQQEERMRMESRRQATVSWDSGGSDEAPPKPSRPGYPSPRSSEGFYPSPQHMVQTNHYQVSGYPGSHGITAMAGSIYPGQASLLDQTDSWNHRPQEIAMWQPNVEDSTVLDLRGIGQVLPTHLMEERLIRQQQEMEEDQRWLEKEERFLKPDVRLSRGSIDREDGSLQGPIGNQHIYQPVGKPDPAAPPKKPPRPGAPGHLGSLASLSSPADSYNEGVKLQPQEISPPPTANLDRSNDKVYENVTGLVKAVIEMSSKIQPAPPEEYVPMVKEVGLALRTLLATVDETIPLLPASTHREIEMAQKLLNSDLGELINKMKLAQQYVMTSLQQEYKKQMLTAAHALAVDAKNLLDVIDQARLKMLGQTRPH
Assay: small-molecule microarray binders of FAK, primary screen, biochemical, 635/667 nm fluorescence, BSA, DTT (AID 1130);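 also: composite of spot emission at 667 nm and signal to noise over triplicate slides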
Conditions: PTK2 binding, 635 nm fluorescence, higher = more signal
Quick one: just the number, no unit, thanks!

A selection of reference data follows.
{"compound": "[N-]=[N+]=NCc1ccccc1C[C@]1(C(=O)NCC(O)CO)N=C(c2ccc(OCCCO)cc2)O[C@H]1c1ccccc1CN=[N+]=[N-] (stereo partly specified)", "numeric.result": 0.116}
{"compound": "CO[C@H]1O[C@H](CO)[C@@H](OC(=O)Nc2ccc(Oc3ccccc3)cc2)[C@H](OC(=O)Nc2ccccc2-c2ccccc2)[C@@H]1OC(=O)Nc1ccccc1-c1ccccc1", "numeric.result": 0.263}

Record CCOC(=O)C1=C[C@@H](c2ccccc2)N(S(=O)(=O)c2ccc(C)cc2)[C@H]1c1cccc(Cl)c1 . Reported composite z-score: 0.283

Record CN(C)CCCNC(=O)[C@@]1(C)c2ccccc2C(=O)N(Cc2cc(C(F)(F)F)cc(C(F)(F)F)c2)[C@H]1c1ccc(CO)cc1 . Reported composite z-score: -0.24

Record COc1cc2c(cc1OC)CN(C(=O)[C@H]1[C@@H]3C(=O)O[C@@H](c4ccccc4)[C@@H](c4ccccc4)N3[C@@H](c3ccc(OCCO)cc3)[C@]13C(=O)Nc1ccc(C#CC4(O)CCCCCC4)cc13)CC2 . Reported composite z-score: -0.109

Record COC(=O)Cn1c(C(=O)N2CCCC2)cc2c1C[C@H]1CN(C(=O)c3ccccc3)[C@@](Cc3ccc(F)cc3)(C(=O)OC)[C@@H]21 . Reported composite z-score: 0.386

###

Test: MM1S myeloma cell viability, profiling panel, resazurin fluorescence, basal, 24 h, PK04 Diversity Set (AID 1174);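 also: MM1S multiple myeloma cell line; test concentration not given here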
Conditions: higher = more signal, called active from +8 up or from −8 down
observed.property: z-score
Quick one: just the number, no unit, thanks!

{"compound.smiles": "COCCCNC(=O)[C@@]1(Sc2ccc(C)cc2)CC(=O)N(Cc2cc(C(F)(F)F)cc(C(F)(F)F)c2)[C@@H]1c1ccc(CO)cc1", "z-score": -0.538}
{"compound.smiles": "COc1ccccc1CN1C(=O)c2ccccc2[C@](Cc2ccccc2I)(C(=O)NC(C)C)[C@@H]1c1ccc(CO)cc1", "z-score": -0.577}
{"compound.smiles": "Cc1ccc(S[C@]2(C(=O)NC(C)C)CC(=O)N(C3Cc4ccccc4C3)[C@@H]2c2ccc(CO)cc2I)cc1", "z-score": -3.17}
{"compound.smiles": "COc1c(C)cc(-c2cc3c(c(-c4ccccc4)n2)[Si](C(C)C)(C(C)C)OC3)cc1C", "z-score": 0.416}

Next up:
Record Cc1c(NC(=O)/C(C#N)=C/C=C/c2ccc(N(C)C)cc2)c(=O)n(-c2ccccc2)n1C . Reported z-score: 0.514

###

Molecular target: Luciferin 4-monooxygenase (Photinus pyralis) (UniProt P08659)
Sequence (P08659 whole entry, looked up): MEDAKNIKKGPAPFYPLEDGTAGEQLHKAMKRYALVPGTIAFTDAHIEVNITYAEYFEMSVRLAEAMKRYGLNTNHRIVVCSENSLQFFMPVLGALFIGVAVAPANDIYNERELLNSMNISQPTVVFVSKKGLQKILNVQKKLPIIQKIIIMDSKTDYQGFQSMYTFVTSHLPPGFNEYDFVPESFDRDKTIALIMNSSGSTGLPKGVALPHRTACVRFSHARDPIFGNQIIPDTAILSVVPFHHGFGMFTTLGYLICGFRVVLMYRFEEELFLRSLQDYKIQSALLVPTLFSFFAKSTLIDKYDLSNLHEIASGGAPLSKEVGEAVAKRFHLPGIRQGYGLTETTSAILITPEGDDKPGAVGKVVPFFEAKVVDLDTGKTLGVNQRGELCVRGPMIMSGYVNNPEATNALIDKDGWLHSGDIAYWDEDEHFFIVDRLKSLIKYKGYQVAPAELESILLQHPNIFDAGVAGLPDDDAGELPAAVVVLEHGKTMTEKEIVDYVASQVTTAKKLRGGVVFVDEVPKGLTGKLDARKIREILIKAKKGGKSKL
Test: firefly luciferase enzyme inhibitors, primary screen, biochemical, luminescence, purified enzyme, 2006 set (AID 1141);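 also: cell-free assay with purified firefly luciferase at 100 ng per well in PBS; test concentration not given here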
Details: SteadyGlo luminescence, 30 min, higher = more signal, called active from +8 up or from −8 down
Use T when the recorded z-score is no lower than -1; use F when it is lower.

Can COc1cc(CO)cc(I)c1O[C@H]1C=C(C(=O)NCCO)C[C@@H](NCc2ccccc2F)[C@@H]1O be said to have z-score at or above -1?
T

Can Cc1ccc(S[C@]2(C(=O)NCc3ccccc3)CC(=O)N(C(C)C)[C@@H]2c2ccc(CO)cc2I)cc1 be said to have z-score at or above -1?
T

Can C=CC[C@]1(C(=O)N(C)C)N=C(c2ccc(OCCCO)cc2)O[C@H]1c1ccccc1N=[N+]=[N-] be said to have z-score at or above -1?
F

Can COc1ccc([Si](C)(C)[C@H]2[C@H](CCn3cc(CCO)nn3)O[C@@]3(C(=O)N(Cc4ccc(N5C(=O)c6cccc7cccc5c67)cc4)c4ccccc43)[C@@H]2C)cc1 be said to have z-score at or above -1?
T

Can C=C1C2CC3C(=C4C(CO[C@@H]4[C@H]4CCCN4S(=O)(=O)c4ccccc4[N+](=O)[O-])C4C(=O)N(C)C(=O)C34)CC2C(=O)N1C (some centres undefined) be said to have z-score at or above -1?
T

Can C=CCNC(=O)[C@@H]1[C@H]2C(=O)O[C@H](c3ccccc3)[C@H](c3ccccc3)N2[C@H](c2ccccc2OCCO)[C@@]12C(=O)N(C(=O)OCCOC)c1ccc(C#CC3=CCCCC3)cc12 be said to have z-score at or above -1?
F

Can CC1CC/C=C\[C@H]2OC34C=CCN(C(C)C)C(=O)[C@H]3N(CCCCCO)C(=O)[C@@H]4C2C(=O)O1 (some centres undefined) be said to have z-score at or above -1?
F

Can COc1ccc([Si](C)(C)[C@H]2[C@H](CCO)O[C@@]3(C(=O)N(Cc4cccc(N5CCCCC5=O)c4)c4ccccc43)[C@@H]2C)cc1 be said to have z-score at or above -1?
F

Can [N-]=[N+]=NCc1ccccc1[C@H]1OC(c2ccc(OCCCO)cc2)=N[C@@]1(CCS(=O)(=O)c1ccccc1)C(N)=O be said to have z-score at or above -1?
F

Can CC(C)c1ccc(NN2C(C(O)c3ccco3)C=CC3C(=O)N(c4ccccc4)C(=O)C32)cc1 (centres undefined) be said to have z-score at or above -1?
F

Can CCOc1cc(C(O)C2C=CC3C(=O)N(C)C(=O)C3N2N2CCCCC2)ccc1O (centres undefined) be said to have z-score at or above -1?
T

Can CCOC(=O)C[C@H]1[C@H](OC(=O)Cc2ccc3c(c2)OCO3)[C@@H](NC(=O)C2CCCCC2)c2cc(OCCCO)ccc2N1C(=O)c1ccc2ccccc2n1 be said to have z-score at or above -1?
T

Can C=CC[C@]12N=C(c3ccc(OCCCO)cc3)O[C@H]1c1ccccc1N(C)C2=O be said to have z-score at or above -1?
F

Can C=CC[C@@]1(C(=O)N2CCCCC2)N=C(c2ccc(OCCCO)cc2)O[C@@H]1c1ccccc1 be said to have z-score at or above -1?
T

Can COc1ccc(C(O)C2C=CC3C(=O)N(c4ccccc4)C(=O)C3N2Nc2ccc(C#N)cc2)c2ccccc12 (centres undefined) be said to have z-score at or above -1?
T

Can O=C1O[C@@H](c2ccccc2)[C@@H](c2ccccc2)N2[C@@H](c3ccccc3OCCO)[C@]3(C(=O)Nc4ccccc43)[C@@H](C(=O)NC[C@H](O)c3ccccc3)[C@H]12 be said to have z-score at or above -1?
T

Can COCCOC(=O)N1C(=O)[C@@]2(c3cc(C#CC4(O)CCCCCC4)ccc31)[C@H](C(=O)N1CCCCCCC1)[C@H]1C(=O)O[C@H](c3ccccc3)[C@H](c3ccccc3)N1[C@@H]2c1ccc(OCCO)cc1 be said to have z-score at or above -1?
F

Can COc1c(C)cc(-c2cc3c(c(Cc4ccccc4)n2)[Si](C(C)C)(C(C)C)OC3)cc1C be said to have z-score at or above -1?
T

Can O=C(O)[C@H](Cc1ccccc1)n1cc(-c2ccccn2)nn1 be said to have z-score at or above -1?
T
